Please respond with reported self-cleavage for every item in the list.
B1: HDV Ribozyme (parent)
chain: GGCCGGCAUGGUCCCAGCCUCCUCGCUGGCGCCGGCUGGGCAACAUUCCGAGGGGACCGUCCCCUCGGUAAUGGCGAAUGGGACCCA

- Variants of: B1
- Assay Info: self-cleavage, relative activity (ratio to wild type); higher = more cleavage; co-transcriptional

Examples with their reported self-cleavage follow.
>>> print(df.to_string())
     variant        measure  recorded_value
0  U12C G31C  self-cleavage           0.123
1  C41G G81A  self-cleavage           0.188
2  G38A G67C  self-cleavage           0.113
3  G67C G80C  self-cleavage           0.189

Please go through the list and note self-cleavage for each variant.
1. C36G A78C
2. C22G C61U
3. C22G G38A

Resp:
[0.161, 0.0723, 0.0231]

// batch mode: one self-cleavage value per listed entry
1. U12C G17C
2. G38C C58A

Resp:
1: 0.145; 2: 0.361

Hello, I would appreciate it if you could give self-cleavage for each entry below.
1. C14G C36A
2. G25C A42C
3. G40C A87U
4. G17U C49G
5. G25A C26U

Resp:
[0.192, 0.128, 0.325, 0.356, 0.339]

Hi, could you look up self-cleavage for each item in my list?
1. G31A C41U
2. G2U A56C

Resp:
[0.269, 0.0405]
